experiment: Components of the Cytosolic LPS Sensing Pathway: Gene Identification via Genome-wide siRNA Screen; settings: RAW264.7 macrophages, IL-1a HTRF, actives lie on both sides, screened at 100 nM (by protocol), cells primed 5 h with Pam3CSK4 first
The whole screen tested about 53,000 sequences, of which about 3,700 (7%) were called active. The sample as a whole holds a higher share of actives than the screen did.
z-score under 0.8 gets T, anything at or over 0.8 gets F.

The examples below pair each entry with its known result.
# sequence entry, answer label
records = [
    ("GCUGAAAGAUUUACUGCCCTT against Bhlhe41", "F"),
    ("GCUAAAAAUGGUUGUGUGATT against Six3os1", "T"),
    ("GGAUCCUCACCAAGAUUACTT against Mrps22", "T"),
    ("GGAAAAAUUGCUUCUGACCTT against Rad51b", "T"),
    ("GGAUAGAGCACAGAUCCAGTT against St8sia5", "F"),
]

Q) State whether 0.8 exceeds z-score recorded for CCCUUGAAGAUGAAACCAGTT against Smarca5 .
A) T

Q) State whether 0.8 exceeds z-score recorded for GCAGAGAGUUUUUAUCUGCTT against Vmp1 .
A) T

Q) State whether 0.8 exceeds z-score recorded for GGAUCAUUCCUUUGGUUAGTT against Fabp5 .
A) T

Q) State whether 0.8 exceeds z-score recorded for GGAUCUGACACACAUGAUCTT against Med16 .
A) F

Q) State whether 0.8 exceeds z-score recorded for GGAUGAUUUAUGGUUACUGTT against Vmn1r80 .
A) F

Q) State whether 0.8 exceeds z-score recorded for CCGUGGAUUGUGGAAUAAUTT against Xpnpep3 .
A) T

Q) State whether 0.8 exceeds z-score recorded for GCAUCUCAGCUCUGAUUUATT against Fgfbp3 .
A) T
